Documented viability, T/C across a set of compounds
Test system: NCI-H1876 tumor spheroid viability
method.summary: Anticancer human tumor NCI-H1876 cell line growth inhibition;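 further: spheroids exposed to compounds for seven days before the viability read; percent of DMSO vehicle control viability so 100% = vehicle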
stated.conditions: second compound 0.003 µM; first compound 0.0949 µM; hits give low values; spheroids with HUVEC and MSC
parameter: viability, T/C (%)

1) Cn1ncnc1[C@H]1c2n[nH]c(=O)c3cc(F)cc(c23)N[C@@H]1c1ccc(F)cc1 + CC[C@@]1(O)C(=O)OCc2c1cc1n(c2=O)Cc2cc3c(CN(C)C)c(O)ccc3nc2-1 :: 36
2) O=C(c1cc(Cc2n[nH]c(=O)c3ccccc23)ccc1F)N1CCN(C(=O)C2CC2)CC1 + CC[C@@]1(O)C(=O)OCc2c1cc1n(c2=O)Cc2cc3c(CN(C)C)c(O)ccc3nc2-1 :: 60.1
3) CNCc1ccc(-c2cc(-c3nc(-c4ccc(S(=O)(=O)C(C)C)cc4)cnc3N)on2)cc1 + CC[C@@]1(O)C(=O)OCc2c1cc1n(c2=O)Cc2cc3c(CN(C)C)c(O)ccc3nc2-1 :: 34
4) CNCc1ccc(-c2cc(-c3nc(-c4ccc(S(=O)(=O)C(C)C)cc4)cnc3N)on2)cc1 + COc1cc2c(cc1O)CCNC21CSC2c3c(OC(C)=O)c(C)c4c(c3C(COC1=O)N1C(O)C3Cc5cc(C)c(OC)c(O)c5C(C21)N3C)OCO4 :: 1.21
5) O=C(c1cc(Cc2n[nH]c(=O)c3ccccc23)ccc1F)N1CCN(C(=O)C2CC2)CC1 + COc1cc2c(cc1O)CCNC21CSC2c3c(OC(C)=O)c(C)c4c(c3C(COC1=O)N1C(O)C3Cc5cc(C)c(OC)c(O)c5C(C21)N3C)OCO4 :: 6.83
